Assay: Toxicity in Galleria mellonella larvae assessed as larval survival at 100 mg/kg measured after 96 hrs
Format: organism-based
Conditions: in vivo
ASSAY_ENDPOINT: survival at 96 h (%)
Response body: numeric value in %, unit text excluded.

Query :: Field request: survival at 96 h | item: `CO[C@H]1/C=C/O[C@@]2(C)Oc3c(C)c(O)c4c(O)c(c(/C=N/N5CCN(Cc6cn(CCCCCCO[C@@H]7[C@@H](O[C@H]8O[C@H](CO)[C@@H](O)[C@H](N)[C@H]8O)[C@H](N)C[C@H](N)[C@H]7O[C@H]7O[C@H](CN)[C@@H](O)C[C@H]7N)nn6)CC5)c(O)c4c3C2=O)NC(=O)/C(C)=C\C=C\[C@H](C)[C@H](O)[C@@H](C)[C@@H](O)[C@@H](C)[C@H](OC(C)=O)[C@@H]1C.Cl.Cl.Cl.Cl.Cl`
Result :: 100
